Attribute: Papp at 3 h, 1 μM
assay-text: Apparent permeability (Papp), bi-directional transport
Format: in vitro ADME
measurement-parameters: pig, LLC-PK1, t=3 h, average of A to B and B to A, read-out: Papp LLC-PK1 cells
measured-property: Papp at 3 h, 1 μM (×10⁻⁶ cm/s)

> print(dat)
                                   compound  qualifier.symbol  quantitative.result
1  CCCCCCN1C(CNC(C)=O)[C@@H](O)[C@H](O)[C@H]1CO (some centres unmarked) [reference compound]                 <                  1.6
2  CC(=O)NC[C@@H]1[C@@H](O)[C@H](O)[C@@H](CO)N1CCCc1ccc(-c2ccccc2)cc1                 =                    5
3  CC(=O)NC[C@@H]1[C@@H](O)[C@H](O)[C@@H](CO)N1CCCCc1ccccc1                 <                  1.6
4  CC(=O)NC[C@@H]1[C@@H](O)[C@H](O)[C@@H](CO)N1CCc1ccc(-c2ccccc2)cc1                 =                  4.4
5  COc1ccc(CCCN2[C@H](CO)[C@@H](O)[C@H](O)[C@H]2CNC(C)=O)cc1                 =                  2.6

====

tested-target: human O-GlcNAcase (Homo sapiens)
Sequence (O60502 1-916): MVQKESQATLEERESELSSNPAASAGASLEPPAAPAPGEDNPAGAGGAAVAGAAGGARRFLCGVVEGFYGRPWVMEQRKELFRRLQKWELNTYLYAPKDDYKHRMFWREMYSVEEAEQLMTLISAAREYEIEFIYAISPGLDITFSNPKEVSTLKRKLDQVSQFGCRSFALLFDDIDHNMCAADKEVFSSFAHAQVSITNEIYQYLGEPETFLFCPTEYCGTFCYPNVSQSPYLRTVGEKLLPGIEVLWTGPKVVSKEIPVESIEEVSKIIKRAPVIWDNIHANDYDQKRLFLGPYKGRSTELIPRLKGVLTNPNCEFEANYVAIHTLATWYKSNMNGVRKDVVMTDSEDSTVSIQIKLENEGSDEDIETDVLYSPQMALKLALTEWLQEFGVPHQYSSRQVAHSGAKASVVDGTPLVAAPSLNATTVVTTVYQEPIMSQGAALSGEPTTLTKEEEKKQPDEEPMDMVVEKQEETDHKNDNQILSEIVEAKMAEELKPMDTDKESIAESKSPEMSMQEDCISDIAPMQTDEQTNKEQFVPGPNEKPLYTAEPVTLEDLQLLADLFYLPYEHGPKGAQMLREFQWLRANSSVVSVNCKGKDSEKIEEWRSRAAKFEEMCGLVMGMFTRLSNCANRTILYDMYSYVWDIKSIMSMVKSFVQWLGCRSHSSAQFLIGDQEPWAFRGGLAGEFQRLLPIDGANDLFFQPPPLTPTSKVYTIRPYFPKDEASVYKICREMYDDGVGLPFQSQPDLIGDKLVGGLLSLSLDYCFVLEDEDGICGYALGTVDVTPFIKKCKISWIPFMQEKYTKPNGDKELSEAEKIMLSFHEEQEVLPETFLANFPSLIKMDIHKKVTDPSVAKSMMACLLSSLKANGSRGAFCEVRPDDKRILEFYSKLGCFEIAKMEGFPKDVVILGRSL
pKi: −log10 of the molar value.
Attribute: pKi
measured-property: pKi

> print(dat)
                                   compound                     tested.target  quantitative.result
1  CC(=O)NC[C@H]1N[C@H](CO)[C@@H](O)[C@@H]1O [reference compound]  human O-GlcNAcase (Homo sapiens)                 6.97
2  CC(=O)NC[C@@H]1[C@@H](O)[C@H](O)[C@@H](CO)N1Cc1ccccn1  human O-GlcNAcase (Homo sapiens)                 5.52
3  CNC(=O)C[C@@H]1[C@@H](O)[C@H](O)[C@@H](CO)N1CCCc1ccccc1  human O-GlcNAcase (Homo sapiens)                 7.26
4  COc1ccc(CCCN2[C@H](CO)[C@@H](O)[C@H](O)[C@H]2CNC(C)=O)cc1  human O-GlcNAcase (Homo sapiens)                 6.97
5  CCCCCCN1C(CNC(C)=O)[C@@H](O)[C@H](O)[C@H]1CO (some centres unmarked) [reference compound]  human O-GlcNAcase (Homo sapiens)                 6.21

Hey, just so you know, these numbers are from patent US9809537B2.
